Assignment: determine reported IC50 for the given compounds.
- Assayed system: Cathepsin S (human recombinant CTSS) (Homo sapiens)
- Sequence (P25774 115-331): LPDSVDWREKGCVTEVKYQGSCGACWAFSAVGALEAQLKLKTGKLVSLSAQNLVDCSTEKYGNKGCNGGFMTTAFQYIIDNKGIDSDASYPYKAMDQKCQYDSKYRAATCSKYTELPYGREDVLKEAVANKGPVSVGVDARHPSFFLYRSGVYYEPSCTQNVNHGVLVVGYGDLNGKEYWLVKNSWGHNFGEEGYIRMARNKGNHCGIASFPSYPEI
- Protocol: fluorescence CTSS activity assay kit with recombinant enzyme
- Assay type: biochemical
Respond numerically; units are nM and should not be typed.

Entry CC(C)C[C@H](NC(=O)[C@H](Cc1ccccc1)NC(=O)OCc1ccccc1)C(=O)C=O [Z-FL-hydrate, Z-FL-COCHO-hydrate] , tested on Cathepsin S (human recombinant CTSS) (Homo sapiens), has a reported IC50 of 262

Noted IC50 for CC(C)C[C@H](NC(=O)[C@H](Cc1ccccc1)NC(=O)OCc1ccccc1)C(=O)C=O [Z-FL, Z-FL-COCHO] , tested on Cathepsin S (human recombinant CTSS) (Homo sapiens): 172
